# GI50 per entry
# System: SF-295
# assay notes: NCI tumour cell line growth inhibition, 48 h
Active and inactive are the calls of the source. No stated cut-off is given here; in the data, active = GI50 up to about 1.1 µM and inactive = higher.

Sample records with GI50:
{"columns": ["molecule", "GI50"],
 "data": [
  ["CC(C)=CCC[C@](C)(O[C@@H]1O[C@H](CO)[C@@H](O)[C@H](O)[C@H]1O)[C@H]1CC[C@]2(C)[C@@H]1[C@H](O)C[C@@H]1[C@@]3(C)CC[C@H](O)C(C)(C)[C@@H]3[C@@H](O[C@@H]3O[C@H](CO)[C@@H](O)[C@H](O)[C@H]3O)C[C@]12C [GINSENOSIDE RG1]", "> 100 µM (inactive)"],
  ["CCCCCCCCC(O)c1ccc(/C=C\\C(O)CCCC(=O)O)s1 (stereo unspecified)", "> 100 µM (inactive)"],
  ["O=C1C([N-]S(=O)(=O)c2ccccc2)=C([n+]2ccc(Cc3ccccc3)cc2)C(=O)c2ccccc21", "1.79 µM (inactive)"],
  ["CCOC(=O)CCSc1nc2ccc(I)cc2c(=O)n1Cc1ccccc1", "21.7 µM (inactive)"],
  ["COC(=O)C/N=C1\\NC(=S)N(Cc2ccc(OC)cc2)C12CCCC2", "> 100 µM (inactive)"]
]}

Reported GI50 (SF-295) for entry Cc1cc(NC(=S)SCc2ccc(F)cc2)c([N+](=O)[O-])cc1C is 34.5 µM (inactive)

Form: item COc1cc2c(c(OC)c1)C(C)=NC(C)C2 (stereo unspecified) ; test system SF-295; GI50: > 100 µM (inactive)
